These data points were gathered from the supplement of paper PMC12764529.

Assay: folding stability dG unfold from chymotrypsin proteolysis; higher = more stable
Give folding stability dG unfold for every item shown.
Form entry: value (kcal/mol) — number only.

Task item: What measured folding stability dG unfold goes with SAGNIKIEDIEPNDDYYTLVIKAPENGRTIMIQYNPNNNRIPIMIFPPGGVRTIPIPMNDIEDFLKEILSAG [r5_769_TrROS] ?
Reply: 0.903

Task item: Next entry: SAGPDKPLKIESIGGKFNPDNGVISIKLKVEDPGDGKTYDYTMQFPVRDPDNGKPYMFTFPMRIKVPDSAGG [r19_129_TrROS]
Reply: 0.647

Task item: Next entry: SKGTFRAVLPLETLKELIERFKSKGYRIEVKPLSIKPFEVPGIREDGTPELFPVVEVEAEIEIYPPEDPASA [r9_991_TrMRF]
Reply: 1.9

Task item: Next entry: SAGGSEVKIVKIESVEIEEENGFLRIKVRATLKFYDKETGELVEEKEVELEVTLKNGKKLTFKIKASAGGSA [r2_271_TrROS_Hall]
Reply: 3.12

Task item: Next entry: SAGGSAKPGEKLKIRMWNPDGETHEFDVKIPPGVRIRMPDNGQEQTFPPGDEIPFPPNMPIQVEKVSAGGSA [r15_152_TrROS]
Reply: 0.309

Task item: Next entry: SAGGMVIRVRFRETNETVTLSPEVLEALKRGDPDALRALPEEQREALARIERVEIRPAPPVRVLPEEESAGG [r13_233_TrROS_Hall]
Reply: 1.81

Task item: Next entry: SAGGSAGGSIRIIFPVDNPEQAENIAEEIAERFGIQIEDIEVEQVPNGMYIVTFEVKIPPEMISAGGSAGGS [r12_577_TrROS]
Reply: 2.28

Task item: Next entry: SAGGSAGGMSLEEAVEEAAAAVSPDETAEVVLTVEVSEPLTFPEPPDRLVTRPRTVRVRVRAPASAGGSAGG [r6_543_JUSTAS]
Reply: 0.488

Task item: Next entry: SAGGSAGGMTITLTLPDGTVITITVSRPGSPTTVVSVKAERPARGGTDIPEEVAKELAEKILKESAGGSAGG [r6_235_JUSTAS]
Reply: 2.96

Task item: Next entry: SAGGSAGGSAGGMLYVKVKTEDGEELVLEVEGMTEDEIREELAKAGFKIEEIEVYEVEPSAGGSAGGSAGGS [r10_572_TrROS_Hall]
Reply: 2.83

Task item: Next entry: SAGGFTIEFPLPPGESPDEIKDEIMDMVRPIADEHGFKNVKIPITNVRWQPPGRRRFTINIEIKFPGSAGGS [r8_184_TrROS]
Reply: 0.465

Task item: Next entry: SAGGSAGGSAGAANDPKKIPIHIFPPDGKPIFKVKIEVYDNGIKIKIEWHPSPDGLYPMISAGGSAGGSAGG [r11_874_TrROS]
Reply: 1.98

Task item: Next entry: SAGGSAGGSAGGGVKYRVLLPKDVNPEKAAELLKPYGVKVVSIEEVEEGFYLIEVEKPESAGGSAGGSAGGS [r10_591_TrMRF]
Reply: 1.59

Task item: Next entry: SAGGSADVKITEVHNPHRNPNGRPFFMVRIKWPDNGTHTIMMNPNDLDDLLAQLPPNWKIDEIHPISAGGSA [r15_339_TrROS]
Reply: 1.68
